{"smiles structure": "O=C(O)CCc1cccc(-c2c(CC(=O)Nc3ccc(F)cc3C(F)(F)F)c(=O)oc3ccccc23)c1", "melting point": "230 to 232 °C"}
{"smiles structure": "Cc1cc2c(-c3cccc(Cc4noc(=O)[nH]4)c3)c(CC(=O)Nc3ccc(F)cc3C(F)(F)F)c(=O)oc2cc1Cl", "melting point": "161 to 164 °C"}
{"smiles structure": "CCOC(=O)CCc1cccc(-c2c(CC(=O)Nc3ccccc3C(F)(F)F)c(=O)oc3cc(Cl)c(C)cc23)c1", "melting point": "115 to 117 °C"}
{"smiles structure": "Cc1cc2c(-c3cccc(-c4noc(=S)[nH]4)c3)c(CC(=O)Nc3ccc(F)cc3C(F)(F)F)c(=O)oc2cc1Cl", "melting point": "178 to 180 °C"}

---

{"compound": "Cc1cc2c(-c3cccc(C(=O)O)c3)c(CC(=O)Nc3ccc(F)cc3C(F)(F)F)c(=O)oc2cc1Cl [Example 2]", "melting point": "278 to 280 °C"}
{"compound": "CCOC(=O)CCc1cccc(-c2c(CC(=O)Nc3ccc(F)cc3C(F)(F)F)c(=O)oc3ccccc23)c1 [Example 13]", "melting point": "163 to 164 °C"}
{"compound": "CCOC(=O)CCc1cccc(-c2c(CC(=O)Nc3ccc(F)cc3C(F)(F)F)c(=O)oc3cc(Cl)c(F)cc23)c1 [Example 11]", "melting point": "142 to 144 °C"}
{"compound": "O=C(O)CCc1cccc(-c2c(CC(=O)Nc3ccc(F)cc3C(F)(F)F)c(=O)oc3cc(Cl)c(CN4CCN(c5ccccc5)CC4)cc23)c1 [Example 114]", "melting point": "226 to 228 °C"}

---

# tgt: UniProtKB Q61263
# Sequence (Q61263 whole entry): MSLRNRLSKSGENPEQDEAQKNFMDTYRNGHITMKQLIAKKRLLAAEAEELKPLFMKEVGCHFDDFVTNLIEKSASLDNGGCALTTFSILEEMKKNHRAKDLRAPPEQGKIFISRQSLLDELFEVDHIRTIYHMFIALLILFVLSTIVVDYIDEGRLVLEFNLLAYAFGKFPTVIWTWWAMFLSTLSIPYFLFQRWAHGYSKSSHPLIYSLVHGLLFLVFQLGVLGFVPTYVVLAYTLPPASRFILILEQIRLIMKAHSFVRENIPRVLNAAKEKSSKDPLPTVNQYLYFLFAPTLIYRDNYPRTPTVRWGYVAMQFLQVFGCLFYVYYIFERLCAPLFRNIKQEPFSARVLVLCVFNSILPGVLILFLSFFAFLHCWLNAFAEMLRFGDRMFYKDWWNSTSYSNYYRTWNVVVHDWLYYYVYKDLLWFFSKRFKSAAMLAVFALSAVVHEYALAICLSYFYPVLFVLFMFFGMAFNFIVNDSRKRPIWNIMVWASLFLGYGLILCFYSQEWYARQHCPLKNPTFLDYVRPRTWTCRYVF
# assay protocol: ACAT inhibitory activity (mouse abdominal macrophage microsome ACAT)
# condition label: microsome ACAT from thioglycolate-stimulated C57BL6J mouse abdominal macrophage; 3H-oleyl-CoA, 37° C. for 20 minutes; read-out: Enzyme inhibition (IC50)

{"smiles structure": "O=C(Cc1c(-c2cccc(C(=O)O)c2)c2cc(CN3CCN(c4ccccc4)CC3)c(Cl)cc2oc1=O)Nc1ccc(Cl)cc1C(F)(F)F", "tgt": "UniProtKB Q61263", "IC50": "1220 nM"}
{"smiles structure": "O=C(O)/C=C/c1cccc(-c2c(CC(=O)Nc3ccc(F)cc3C(F)(F)F)c(=O)oc3cc(Cl)c(CN4CCN(c5ccccc5)CC4)cc23)c1", "tgt": "UniProtKB Q61263", "IC50": "540 nM"}
{"smiles structure": "O=C(Cc1c(-c2cccc(C(=O)O)c2)c2cc(CN3CCN(c4ccccc4)CC3)c(Cl)cc2oc1=O)Nc1ccc(F)cc1C(F)(F)F", "tgt": "UniProtKB Q61263", "IC50": "540 nM"}
{"smiles structure": "O=C(O)CCc1cccc(-c2c(CC(=O)Nc3ccc(Cl)cc3C(F)(F)F)c(=O)oc3cc(Cl)c(CN4CCN(c5ccccc5)CC4)cc23)c1", "tgt": "UniProtKB Q61263", "IC50": "420 nM"}
{"smiles structure": "O=C(O)CCc1cccc(-c2c(CC(=O)Nc3ccc(F)cc3C(F)(F)F)c(=O)oc3cc(Cl)c(CN4CCN(c5ccccc5)CC4)cc23)c1", "tgt": "UniProtKB Q61263", "IC50": "550 nM"}
{"smiles structure": "Cc1cc2c(-c3cccc(CCCC(=O)O)c3)c(CC(=O)Nc3ccc(F)cc3C(F)(F)F)c(=O)oc2cc1Cl", "tgt": "UniProtKB Q61263", "IC50": "430 nM"}
{"smiles structure": "O=C(O)/C=C/c1cccc(-c2c(CC(=O)Nc3ccc(Cl)cc3C(F)(F)F)c(=O)oc3cc(Cl)c(CN4CCN(c5ccccc5)CC4)cc23)c1", "tgt": "UniProtKB Q61263", "IC50": "610 nM"}
